Test system: P388
test.name: Maximum % T/C against P-388 murine leukemia cells in mice.
Type: functional, Mus musculus
quantity.kind: T/C (%)
Dear colleague, please return just the value in %, with no unit written.

| molecule | readout.unit | T/C |
| --- | --- | --- |
| COC12[C@@H]3N[C@@H]3CN1C1=C(C(=O)C(N3CC3c3ccccc3)=C(C)C1=O)[C@@H]2COC(N)=O (some centres undefined) | % | 311 |
| COC12[C@@H]3N[C@@H]3CN1C1=C(C(=O)C(N3CC=CC3)=C(C)C1=O)[C@@H]2COC(N)=O (some centres undefined) | % | 216 |
| COC12[C@@H]3N[C@@H]3CN1C1=C(C(=O)C(N(C)CCN(C)C)=C(C)C1=O)[C@@H]2COC(N)=O (some centres undefined) | % | 267 |

API: the following record is the query input.
Can you look up the measured T/C of COC12[C@@H]3N[C@@H]3CN1C1=C(C(=O)C(N3CCCC(C)C3)=C(C)C1=O)[C@@H]2COC(N)=O (some centres undefined) for me?
238
